# Test system: HCT116
# ASSAY_OVERVIEW: Anti-cancer screen (MTT), HCT116
# Assay type: cell-based
# TEST_SETTINGS: Homo sapiens, HCT-116, 48 hours with compound, tested at 0.01-100 µM
Give GI50 for every item shown.
Unit µM implied. Number only.

Query for HCT116: what GI50 does the record show for COC(CNC(=O)c1ccc(CNC(=O)OCc2cccs2)cc1)OC [Example 53] ?
0.12

Also CN1CCN(C(=O)c2ccc(CNC(=O)OCc3ccsc3)cc2)CC1 [Example 50] , if possible.
64

Proceed to O=C(NCc1ccc(C(=O)NO)cc1)OCCSc1nc2ccccc2s1 [Example 39]
5.5

And O=C(NCc1ccc(C(=O)N2CCN(c3ncccn3)CC2)cc1)OCc1nccs1 [Example 68] ?
9

Please answer likewise for O=C(NCc1ccc(C(=O)NO)cc1)OCc1ccnc2ccccc12 [Example 37]
6
